system.under.test: Potassium voltage-gated channel subfamily KQT member 1 (Homo sapiens) (UniProt P51787)
Sequence (P51787 whole entry, looked up): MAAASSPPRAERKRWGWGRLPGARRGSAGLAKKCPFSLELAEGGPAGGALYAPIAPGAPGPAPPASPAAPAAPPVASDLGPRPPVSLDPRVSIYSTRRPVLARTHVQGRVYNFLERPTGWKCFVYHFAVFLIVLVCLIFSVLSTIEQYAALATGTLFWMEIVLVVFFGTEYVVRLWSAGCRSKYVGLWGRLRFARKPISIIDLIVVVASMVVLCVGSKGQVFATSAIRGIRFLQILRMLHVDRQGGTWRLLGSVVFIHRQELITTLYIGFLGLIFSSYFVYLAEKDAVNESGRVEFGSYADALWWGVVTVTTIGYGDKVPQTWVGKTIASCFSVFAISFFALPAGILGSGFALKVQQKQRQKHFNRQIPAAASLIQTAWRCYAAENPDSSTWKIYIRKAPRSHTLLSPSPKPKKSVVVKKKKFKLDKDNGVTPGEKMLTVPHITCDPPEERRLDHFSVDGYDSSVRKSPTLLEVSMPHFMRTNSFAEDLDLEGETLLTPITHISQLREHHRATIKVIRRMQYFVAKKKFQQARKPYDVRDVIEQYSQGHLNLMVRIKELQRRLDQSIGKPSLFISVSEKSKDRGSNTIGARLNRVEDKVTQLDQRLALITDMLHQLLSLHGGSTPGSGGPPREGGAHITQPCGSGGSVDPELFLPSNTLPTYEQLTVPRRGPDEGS
procedure.summary: KCNQ1 potassium channel potentiators, confirmation, FluxOR thallium flux, CHO cells, duplicates (AID 493007);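 for potentiation: 0% = buffer-only wells and 100% = R-L3 activator control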
condition.label: KCNQ1 cell line, FluxOR thallium flux fluorescence, at 10 µM; stronger effect = higher value, % of reference activator effect, buffer zero
Active and inactive are the calls of the source.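 Rule for the calls: active = potentiation averaged over duplicate wells exceeding buffer-only control mean by more than 3 SD; inactive = the rest.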
assay.metric: potentiation

{"compound": "O=C1NC(=O)N(Cc2ccc(F)cc2)C(=O)/C1=C/c1cccs1", "value.reported": "inactive"}
{"compound": "O=C(O)c1cccc2c1NC(c1cccc([N+](=O)[O-])c1)C1CC(Sc3ccccc3[N+](=O)[O-])C(Cl)C21 (stereo not given)", "value.reported": "inactive"}
{"compound": "COc1cc(-n2c(=S)[nH]c3ccccc3c2=O)c(Cl)cc1Cl", "value.reported": "inactive"}
{"compound": "Cc1ccc(C[n+]2c(-c3ccc(C)cc3)cc(-c3ccc(C)cc3)cc2-c2ccc(C)cc2)cc1", "value.reported": "124% (active)"}
{"compound": "C/C=C(\\C)C(=O)N[C@@H](c1ccccc1)[C@@H](O)C(=O)O[C@H]1C[C@@]2(O)[C@@H](OC(=O)c3ccccc3)C3[C@](C)(C(=O)[C@H](OC(C)=O)C(=C1C)C2(C)C)[C@@H](O)C[C@H]1OC[C@@]31OC(C)=O (stereo not given in full)", "value.reported": "inactive"}
{"compound": "CCN(CC)C(=O)c1ccc(NC(=O)CSc2nnnn2-c2cc(OC)ccc2OC)cc1", "value.reported": "inactive"}
{"compound": "Cc1nc2ccccc2c(=O)n1/N=C/c1cc(Br)cc(Br)c1O", "value.reported": "inactive"}
{"compound": "CCOP(=S)(OCC)c1ccc(N(C)C)cc1", "value.reported": "inactive"}
{"compound": "N#Cc1c(N2CCNCC2)nc(-c2ccco2)c2c1CCCC2", "value.reported": "inactive"}
{"compound": "O=C(CCCN1CCC2(CC1)C(=O)NCN2c1ccccc1)c1ccc(F)cc1", "value.reported": "55.5% (active)"}

====

system.under.test: Short transient receptor potential channel 6 (Mus musculus) (UniProt Q61143)
Sequence (Q61143 whole entry, looked up): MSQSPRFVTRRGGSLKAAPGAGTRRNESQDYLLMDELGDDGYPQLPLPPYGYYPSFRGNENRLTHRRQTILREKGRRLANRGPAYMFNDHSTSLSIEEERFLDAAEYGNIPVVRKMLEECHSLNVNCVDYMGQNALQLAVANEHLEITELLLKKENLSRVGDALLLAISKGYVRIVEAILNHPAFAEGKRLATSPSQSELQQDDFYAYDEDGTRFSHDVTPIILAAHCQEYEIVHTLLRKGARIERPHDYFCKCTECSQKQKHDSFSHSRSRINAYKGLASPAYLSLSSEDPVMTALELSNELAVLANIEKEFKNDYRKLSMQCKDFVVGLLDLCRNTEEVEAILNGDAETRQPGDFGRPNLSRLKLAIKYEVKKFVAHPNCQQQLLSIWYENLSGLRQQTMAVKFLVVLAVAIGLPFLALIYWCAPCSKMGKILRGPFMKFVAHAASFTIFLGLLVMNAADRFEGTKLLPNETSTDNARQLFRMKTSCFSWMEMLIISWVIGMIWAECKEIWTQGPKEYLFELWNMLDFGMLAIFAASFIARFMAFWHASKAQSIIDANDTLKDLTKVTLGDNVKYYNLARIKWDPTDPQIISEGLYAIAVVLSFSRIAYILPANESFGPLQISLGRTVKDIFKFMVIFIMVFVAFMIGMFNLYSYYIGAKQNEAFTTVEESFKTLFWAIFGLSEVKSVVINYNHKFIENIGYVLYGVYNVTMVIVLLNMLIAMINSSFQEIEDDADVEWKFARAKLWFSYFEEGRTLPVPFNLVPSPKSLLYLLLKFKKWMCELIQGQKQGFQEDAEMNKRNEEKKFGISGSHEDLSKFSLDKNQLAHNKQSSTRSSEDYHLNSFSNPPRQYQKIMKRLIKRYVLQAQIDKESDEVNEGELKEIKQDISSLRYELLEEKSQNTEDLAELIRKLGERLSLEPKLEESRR
procedure.summary: activation of mouse TRPC6 channel, confirmation, selectivity assay for TRPC4 activator project, cell-based, HEK293, membrane potential dye, duplicate (AID 434950);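 for activation: 0% = buffer only wells and 100% = acetylcholine maximal-effect wells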
condition.label: HEK293 TRPC6, membrane potential fluorescence, at 10 µM
Active and inactive are the calls of the source.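 How the source made its calls: active means membrane potential signal rise above negative control mean plus 3 SD in both duplicates, also active in the earlier TRPC4 screen; inactive means the rest.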
Classes used: active, inactive

{"compound": "c1ccc2nc(OCCN3CC3)ccc2c1", "system.under.test": "Short transient receptor potential channel 6 (Mus musculus) (UniProt Q61143)", "label.class": "inactive"}
{"compound": "CCN1CCN(c2cc(N3CCCC3)c([N+](=O)[O-])cc2F)CC1", "system.under.test": "Short transient receptor potential channel 6 (Mus musculus) (UniProt Q61143)", "label.class": "inactive"}
{"compound": "COc1ccc(C[C@@H]2c3cc(O)c(OC)cc3CCN2C)cc1O", "system.under.test": "Short transient receptor potential channel 6 (Mus musculus) (UniProt Q61143)", "label.class": "inactive"}
{"compound": "CCOC(=O)C(O)(c1ccc(NC(=S)NC(=O)c2ccc(Cl)cc2Cl)c(C)c1)C(F)(F)F (configuration not stated)", "system.under.test": "Short transient receptor potential channel 6 (Mus musculus) (UniProt Q61143)", "label.class": "inactive"}
{"compound": "CC(C)CN(CC(C)C)c1ccc(C=C2C(=O)NC(=S)NC2=O)cc1[N+](=O)[O-]", "system.under.test": "Short transient receptor potential channel 6 (Mus musculus) (UniProt Q61143)", "label.class": "inactive"}
{"compound": "CCN(CC)CC(=O)Nc1ccc(Cl)cc1C(=O)c1ccccc1", "system.under.test": "Short transient receptor potential channel 6 (Mus musculus) (UniProt Q61143)", "label.class": "inactive"}
{"compound": "COc1ccc(CNCCc2c[nH]c3ccccc23)cc1OC", "system.under.test": "Short transient receptor potential channel 6 (Mus musculus) (UniProt Q61143)", "label.class": "active"}
